Activity listing for selected compounds.
biological target: DNA topoisomerase 2-beta (Homo sapiens) (UniProt Q02880); experiment: Poison activity at recombinant human topoisomerase-2beta expressed in Saccharomyces cerevisiae assessed as stabilization of DNA-enzyme cleavage complex by measuring concentration required to generate 10% double-stranded DNA breaks using supercoiled pBR322 DNA as substrate incubated for 6 mins measured after 30 mins by ethidium bromide staining based agarose gel electrophoresis method
Sequence (Q02880 whole entry): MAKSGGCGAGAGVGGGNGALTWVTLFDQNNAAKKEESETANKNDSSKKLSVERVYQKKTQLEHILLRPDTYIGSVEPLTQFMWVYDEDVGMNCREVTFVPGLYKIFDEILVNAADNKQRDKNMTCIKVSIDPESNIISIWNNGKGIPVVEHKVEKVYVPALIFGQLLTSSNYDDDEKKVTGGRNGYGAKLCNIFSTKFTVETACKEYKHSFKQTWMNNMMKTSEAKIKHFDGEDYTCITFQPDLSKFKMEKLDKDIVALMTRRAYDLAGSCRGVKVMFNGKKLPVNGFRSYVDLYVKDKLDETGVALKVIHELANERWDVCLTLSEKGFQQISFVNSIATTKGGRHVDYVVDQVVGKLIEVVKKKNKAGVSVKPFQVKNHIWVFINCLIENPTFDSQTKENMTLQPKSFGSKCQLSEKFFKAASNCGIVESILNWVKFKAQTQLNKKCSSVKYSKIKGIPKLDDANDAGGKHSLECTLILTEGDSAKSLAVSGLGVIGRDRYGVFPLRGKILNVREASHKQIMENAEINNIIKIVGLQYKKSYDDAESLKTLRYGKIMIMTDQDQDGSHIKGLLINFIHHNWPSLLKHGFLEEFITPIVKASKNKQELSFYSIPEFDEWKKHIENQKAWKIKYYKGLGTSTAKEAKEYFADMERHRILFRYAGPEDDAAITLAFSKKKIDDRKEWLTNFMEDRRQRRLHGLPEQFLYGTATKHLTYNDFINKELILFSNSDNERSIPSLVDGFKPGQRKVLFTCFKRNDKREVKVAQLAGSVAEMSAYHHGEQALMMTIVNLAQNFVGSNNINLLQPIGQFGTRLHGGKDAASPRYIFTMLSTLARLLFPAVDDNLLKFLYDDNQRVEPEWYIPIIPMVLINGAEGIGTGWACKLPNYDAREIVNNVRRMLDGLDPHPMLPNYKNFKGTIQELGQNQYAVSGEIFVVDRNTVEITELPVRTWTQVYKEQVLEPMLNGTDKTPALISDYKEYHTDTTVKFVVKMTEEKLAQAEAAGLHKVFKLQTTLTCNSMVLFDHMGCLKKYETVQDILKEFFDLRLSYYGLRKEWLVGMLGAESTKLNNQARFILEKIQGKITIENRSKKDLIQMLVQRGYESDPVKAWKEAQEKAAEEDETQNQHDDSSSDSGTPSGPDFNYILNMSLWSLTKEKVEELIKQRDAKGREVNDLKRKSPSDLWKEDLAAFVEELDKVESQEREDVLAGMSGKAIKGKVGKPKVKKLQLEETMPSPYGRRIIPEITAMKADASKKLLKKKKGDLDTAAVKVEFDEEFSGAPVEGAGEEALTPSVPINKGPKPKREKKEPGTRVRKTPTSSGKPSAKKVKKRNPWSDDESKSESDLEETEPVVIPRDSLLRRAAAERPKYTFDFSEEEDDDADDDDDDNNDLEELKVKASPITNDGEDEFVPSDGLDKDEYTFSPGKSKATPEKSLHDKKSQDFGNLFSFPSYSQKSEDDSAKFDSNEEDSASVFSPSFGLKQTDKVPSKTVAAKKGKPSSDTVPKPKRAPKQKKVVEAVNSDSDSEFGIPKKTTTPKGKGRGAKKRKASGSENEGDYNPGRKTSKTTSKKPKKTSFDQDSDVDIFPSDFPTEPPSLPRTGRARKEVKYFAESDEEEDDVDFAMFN
Measured quantity: Activity

Given smiles: COc1cc([C@@H]2c3cc4c(cc3[C@@H](NC(=O)CNCCCNCCCNCCCN)[C@H]3COC(=O)[C@H]23)OCO4)cc(OC)c1O
Measured quantity: Activity
Val: 8.1 µM

Given smiles: COc1cc([C@@H]2c3cc4c(cc3[C@@H](NC(=O)CNCCCNCCCCN)[C@H]3COC(=O)[C@H]23)OCO4)cc(OC)c1O
Measured quantity: Activity
Val: 11 µM

Given smiles: COc1cc([C@@H]2c3cc4c(cc3[C@@H](NC(=O)CNCCCNCCCCNCCCN)[C@H]3COC(=O)[C@H]23)OCO4)cc(OC)c1O
Measured quantity: Activity
Val: 4.3 µM

Given smiles: COc1cc([C@@H]2c3cc4c(cc3[C@@H](NC(=O)CNCCCOCCCCOCCCN)[C@H]3COC(=O)[C@H]23)OCO4)cc(OC)c1O
Measured quantity: Activity
Val: 49.9 µM

Given smiles: CNCCCNCCCCNCCCNCC(=O)N[C@@H]1c2cc3c(cc2[C@@H](c2cc(OC)c(O)c(OC)c2)[C@H]2C(=O)OC[C@@H]21)OCO3
Measured quantity: Activity
Val: 7.5 µM

Given smiles: COc1cc([C@@H]2c3cc4c(cc3[C@@H](O[C@@H]3O[C@@H]5CO[C@@H](C)O[C@H]5[C@H](O)[C@H]3O)[C@H]3COC(=O)[C@H]23)OCO4)cc(OC)c1O
Measured quantity: Activity
Val: > 100 µM

Given smiles: COc1cc([C@@H]2c3cc4c(cc3[C@@H](NC(=O)CNCCCNCCNCCCN)[C@H]3COC(=O)[C@H]23)OCO4)cc(OC)c1O
Measured quantity: Activity
Val: 25.3 µM

Hello, the source for this data is ChEMBL document CHEMBL4229437, in case you need it.
